# targetOfAssay: Fuc(a1-2)Gal(b1-4)GlcNAc(b1-3)[Fuc(a1-3)[Gal(b1-4)]GlcNAc(b1-6)]Gal(b1-4)Glc
# protocolSummary: glycan array binding signal (z-score within array); higher = stronger binding
# conditionDetails: glycan notation: IUPAC condensed, linker removed
This excerpt belongs to a sample that is enriched for the strongest signals.
assayEndpoint: glycan array binding signal (z-score)

Documented glycan array binding signal (z-score) of his-Lectin-24A (Drosophila melanogaster) (protein) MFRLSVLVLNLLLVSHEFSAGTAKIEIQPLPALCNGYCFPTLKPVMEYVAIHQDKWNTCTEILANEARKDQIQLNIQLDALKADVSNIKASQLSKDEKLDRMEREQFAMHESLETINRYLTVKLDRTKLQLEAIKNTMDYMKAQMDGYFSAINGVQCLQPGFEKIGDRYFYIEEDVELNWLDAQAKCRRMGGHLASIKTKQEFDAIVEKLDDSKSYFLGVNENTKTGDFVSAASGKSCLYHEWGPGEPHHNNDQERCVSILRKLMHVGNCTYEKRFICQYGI : 2.69
